# assayTarget: Gag-Pol polyprotein (Human immunodeficiency virus type 1 group M subtype B (isolate HXB2))
# procedureDetails: RNase H inhibition, HIV 1 Gag Pol polyprotein, FRET biochemical assay, screening (AID 372)
# experimentalConditions: HIV-1 RT RNase H, FRET RNA/DNA substrate fluorescence; at 10 µM
The whole screen tested about 100,000 compounds, of which about 770 (0.77%) were called active. Rule as the data show it: active = inhibition above about 50%; inactive = the rest. Shown is part of a subset that was picked to be rich in actives.
Pick from active, inactive when you respond.

Reference set (10 entries):
Request: // return assay outcome for CCOc1cc(C=C2C(=O)NC(=O)NC2=O)ccc1OCc1cccc2ccccc12
Result: inactive

Request: Could you check what this test reported for CCCCn1c(O)c(/C=C2\C=Nc3ccccc32)c(=O)[nH]c1=O ?
Result: inactive

Request: How did this test come out for O=C(CCCN1C(=O)c2cccc3cccc(c23)C1=O)N1CCCCC1 ?
Result: inactive

Request: Check the results log: what was the call for COc1cc(/C=C2\SC(N)=NC2=O)ccc1OCc1cccc2ccccc12 ?
Result: active

Request: Any idea what this test logged for O=C(Nc1ncc(Cc2cccc([N+](=O)[O-])c2)s1)c1cccc([N+](=O)[O-])c1 ?
Result: inactive

Request: Hey, what did the test say about CCCc1cc2c(-c3ccccc3)cc(=O)oc2cc1OCC ?
Result: inactive

Request: Identify the outcome logged in this assay for the compound shown: COc1ccc(N(CC(=O)Nc2cccc(OC)c2)S(=O)(=O)c2ccc(C)cc2)cc1
Result: inactive

Request: Given CCCOC(=O)CSc1nc(C)cc(C)c1C#N , state the outcome it received in this test.
Result: inactive

Request: Assay result, entry CCc1ccccc1NC(=O)c1nn2c(c1Cl)NC(c1ccc(C)cc1)CC2C(F)(F)F (stereo not drawn) — outcome?
Result: inactive

Request: Would you mind telling me which call this test gave Cc1cc(C)c(C#N)c(SCC(=O)Nc2ccc(Cl)cc2)n1 ?
Result: inactive

Now look at this entry.
Request: Test call for this compound, please: Cc1ccc(Cc2cnc(NC(=O)c3ccc(Br)cc3)s2)cc1
Result: inactive

* * *

# assayTarget: Gag-Pol polyprotein (Human immunodeficiency virus type 1 group M subtype B (isolate HXB2))
# procedureDetails: RNase H inhibition, HIV 1 Gag Pol polyprotein, FRET biochemical assay, screening (AID 372)
# experimentalConditions: HIV-1 RT RNase H, FRET RNA/DNA substrate fluorescence; at 10 µM
In all, about 100,000 compounds went through this assay and about 770 (0.77%) were called active. No stated cut-off is given here; in the data, active means inhibition above about 50%; inactive means the rest. The sample holds actives, similar compounds and a random draw of the others, so the mix is not that of the screen.
// one of label 1 for active, label 0 for inactive, no free text

Check out these entries, answers already filled in.
Request: Which outcome did this test record for the compound COc1ccc(-c2csc(/C(C#N)=C\Nc3cccc(Cl)c3Cl)n2)cc1OC ?
Result: label 1

Request: Please share the test call associated with COc1ccccc1NC(=O)c1c(NC(=O)c2cc([N+](=O)[O-])ccc2Cl)sc2c1CCCC2 .
Result: label 0

Request: Test call, this compound: NC(=O)c1c(N)sc2c1CCCCCCCCCC2
Result: label 0

---
Request: For CCn1c2ccccc2c2cc(CN3CCC(C)CC3)ccc21 , what call appears in the results of this test?
Result: label 0

Request: Record lookup: outcome of this test for Cc1cc(C)nc(SCC(=O)N/N=C/c2c(Cl)cccc2Cl)n1 ?
Result: label 0

* * *

# assayTarget: Gag-Pol polyprotein (Human immunodeficiency virus type 1 group M subtype B (isolate HXB2)) (UniProt P04585)
# procedureDetails: RNase H inhibition, HIV 1 Gag Pol polyprotein, FRET biochemical assay, screening (AID 372)
# experimentalConditions: HIV-1 RT RNase H, FRET RNA/DNA substrate fluorescence; at 10 µM; stronger effect = higher value
Among all 100,000 compounds or so, about 770 (0.77%) were called active. The sample holds actives, similar compounds and a random draw of the others, so the mix is not that of the screen.
# cutoff 7% applies to inhibition; >= gives y, < gives n

Request: Check this compound for inhibition at or above 7%: O=C1c2ccc(Oc3ccc([N+](=O)[O-])cc3)cc2C(=O)N1c1nc2ccccc2s1
Result: y

***
Request: Hi, just wondering whether CCCCOc1ccc(C(=O)N2CCCc3ccccc32)cc1 shows inhibition of 7% or higher.
Result: y

Request: Decide: inhibition of COC(=O)c1sccc1NS(=O)(=O)c1ccc(OC)cc1 >= 7%?
Result: n

* * *

# assayTarget: Gag-Pol polyprotein (Human immunodeficiency virus type 1 group M subtype B (isolate HXB2))
# procedureDetails: RNase H inhibition, HIV 1 Gag Pol polyprotein, FRET biochemical assay, screening (AID 372)
# experimentalConditions: HIV-1 RT RNase H, FRET RNA/DNA substrate fluorescence; at 10 µM; stronger effect = higher value
The campaign covered roughly 100,000 compounds. About 770 (0.77%) were called active. The list comes from a sample in which actives are over-represented; it also holds close analogues and randomly drawn compounds.
quantityMeasured: inhibition

Below, 3 molecules whose answers are already recorded.
Request: I am curious: what inhibition value has been reported for Cc1cc(=O)[nH]c(SCC(=O)c2ccc(O)c(O)c2)n1 ?
Result: 50% (active)

Request: Consider the molecule COc1ccc(C2/C(=C(/O)c3ccccc3)C(=O)C(=O)N2c2ccc(C)cc2)cc1 (stereo unspecified) and give its measured inhibition.
Result: 7% (inactive)

Request: What value of inhibition has been reported for the following molecule? Cc1ccc(OCCn2c(=S)[nH]c3ccccc32)cc1
Result: 61% (active)

Batch: inhibition for all items listed.
1. CC(C)=NNC(=O)/C(=C/C=C/c1ccccc1)NC(=O)c1ccccc1
2. S=c1[nH]c2ccccc2n1CCOc1ccc(Cl)cc1
3. Cc1ccc(N=C(NO)C(=Nc2ccc(C)c(C)c2)NO)cc1C
4. O=[N+]([O-])c1ccc(-c2ccco2)c(Cl)c1
5. O=C(Nc1nnc(-c2ccc3c(c2)OCO3)s1)c1sc2ccccc2c1Cl
6. O=[N+]([O-])c1ccc(-c2nnc(-c3ccco3)o2)c(Cl)c1

Result:
["7% (inactive)", "39% (inactive)", "23% (inactive)", "14% (inactive)", "5% (inactive)", "8% (inactive)"]

Below are 2 molecules. Give each one its inhibition.
1. Cc1cc(C)nc(SCC(=O)c2ccc(O)c(O)c2)n1
2. Cc1nc(SCC(=O)c2ccc(O)c(O)c2)n[nH]1

Result:
1. 74% (active)
2. 42% (inactive)

* * *

# assayTarget: Gag-Pol polyprotein (Human immunodeficiency virus type 1 group M subtype B (isolate HXB2))
# procedureDetails: RNase H inhibition, HIV 1 Gag Pol polyprotein, FRET biochemical assay, screening (AID 372)
# experimentalConditions: HIV-1 RT RNase H, FRET RNA/DNA substrate fluorescence; at 10 µM; stronger effect = higher value
Screen size: about 100,000 compounds; about 770 (0.77%) were called active. This is one part of a sample in which actives are shown more often than they occur.
Exercise: state measured inhibition for each of the molecules provided.
Answers are plain numbers, in %.

Request: What value of inhibition has been recorded for this entry: O=C(O/N=C/c1ccc([N+](=O)[O-])cc1)c1cccs1
Result: 1

Request: # lookup: inhibition of CC(C)(C)C1=CC(C(C)(C)C)=C([N+](=O)[O-])C(=O)C1=O
Result: 6

Request: What does the data say about its inhibition? Entry: CCOC(=O)c1cc(-c2ccccc2)sc1NC(=O)c1ccc([N+](=O)[O-])cc1
Result: 22

Request: Looking for the measured inhibition of Oc1ccc(-c2nc(-c3ccccc3)c(-c3cccs3)[nH]2)cc1O , can you help?
Result: 63

Hi team, please reply with inhibition for each item in this list.
1. O=C1NC(=Nc2cccc(Cl)c2Cl)S/C1=C\c1ccc(F)cc1
2. CCOC(=O)c1ccc(N=Cc2ccc3c(c2)OCO3)cc1

Result:
1. 22
2. 4

Required: inhibition, one value per molecule below.
1. O=C1NC(=S)S/C1=C/c1ccc(O)c(Br)c1
2. O=C1NN(c2ccc(Cl)c(Cl)c2)C(=O)/C1=C/c1ccc(O)c(O)c1
3. CC(C)(C)C1=CC(C(C)(C)C)=C(Cl)C(=O)C1=O
4. O=C1NN(c2ccc(Cl)cc2)C(=O)/C1=C\c1ccc(O)c(O)c1

Result:
3
49
69
57

// batch mode: one inhibition value per listed entry
1. O=C(COc1ccc(Br)cc1Cl)Nc1ccc2c(c1)OCCO2
2. O=C(COc1ccc(Cl)cc1Br)Nc1ccc2c(c1)OCCO2
3. Cc1ccccc1C(=O)NC(=S)Nc1ccc2c3c(cccc13)CC2
4. O=C1NC(=Nc2cccc(Cl)c2Cl)S/C1=C\c1ccc(O)cc1

Result:
[50, 36, 21, 12]

Below is a list of molecules. For each, state its recorded inhibition.
1. O=C(COc1ccc2ccccc2c1)Nc1ccccc1C(=O)Nc1ccccc1
2. COc1ccc(/C=C2\SC(=S)NC2=O)cc1C

Result:
54
65

For every item below, please supply its inhibition.
1. CCOc1ccc(/C=C2/SC(NC(C)=O)=NC2=O)cc1
2. O=C(Nc1cccc(Cl)c1Cl)c1ccc(-c2ccc(Br)cc2)o1

Result:
0
57

Go through the list and state inhibition for each entry.
1. Cc1cc(C)cc(OCCOc2ccc([N+](=O)[O-])cc2/C=C2\SC(=S)NC2=O)c1
2. O=C(Nc1cccc(Cl)c1Cl)c1ccc(-c2cccc(Cl)c2)o1

Result:
1: 38; 2: 37

Give one value of inhibition per listed molecule.
1. Oc1ccc(Br)cc1-c1nc(-c2ccccc2)c(-c2cccs2)[nH]1
2. COc1cc(/C=C2/C(=O)NN(c3ccc(Cl)cc3)C2=O)ccc1O
3. CCOC(=O)c1cc(-c2ccccc2)sc1NC(=O)COc1ccccc1[N+](=O)[O-]

Result:
9
23
57
